molecular target: IGF2 (Homo sapiens, UniProt P01344); assay: SPR (Biacore T200) of recombinant IGF2R domain 11 mutants on immobilised biotinylated IGF2; format: binding; set-up: purchased GroPep; conditions: Table 3; 25° C., HBS-EP pH 7.4
Sequence (P01344 25-91): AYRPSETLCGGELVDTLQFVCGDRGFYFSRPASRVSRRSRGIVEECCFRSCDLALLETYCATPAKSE
readout name: Kinetics koff (s⁻¹)
Value expressed in s⁻¹; do not type the unit.

Record excerpt, results attached:
| molecule | readout name | result units | test result |
| --- | --- | --- | --- |
| AB5 Q1569R P1597H K1631W: domain 11 AB5 + Q1569R, P1597H, K1631W (protein) MKSNEHDDCQVTNPSTGHLFDLSSLSGRAGFTAAYAKGWGVYMSICGENENCPPGVGACFGRTRISVGKANKRLRYVDQVLQLVYKDGSHCPSKSGLSYKSVISFVCRPEAGPTNRPMLISLDWQTCTLFFSWHTPLACEQATECSV | Kinetics koff | s⁻¹ | 0.0115 |
| AB3 Q1569R P1597H: domain 11 AB3 + Q1569R, P1597H (protein) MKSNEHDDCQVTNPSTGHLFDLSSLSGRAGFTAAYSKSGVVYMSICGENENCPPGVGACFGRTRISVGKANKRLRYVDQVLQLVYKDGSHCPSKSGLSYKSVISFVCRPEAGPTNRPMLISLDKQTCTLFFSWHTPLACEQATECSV | Kinetics koff | s⁻¹ | 0.0153 |

Turning to the following molecule.
Data point: AB5 Q1569R: domain 11 AB5 + CD loop Q1569R (protein) MKSNEHDDCQVTNPSTGHLFDLSSLSGRAGFTAAYAKGWGVYMSICGENENCPPGVGACFGRTRISVGKANKRLRYVDQVLQLVYKDGSPCPSKSGLSYKSVISFVCRPEAGPTNRPMLISLDKQTCTLFFSWHTPLACEQATECSV ; Kinetics koff = 0.0175

Taken from patent US10494415B2.
